Numbers sourced from PubChem BioAssay (NCI).

test system: NCI-H226 lung; assay: NCI tumour cell line growth inhibition, 48 h
Kindly state TGI for each of the entries shown.

Checklist item: TGI tested on NCI-H226 lung, entry `C/C(=C1\SC(=NCc2cccs2)NC1=O)c1ccc2ncccc2c1` , value?
> 25 µM

Find TGI (NCI-H226 lung) for the entry `CCOC(=O)Cn1c(=O)[nH]c(=O)c2c1ncn2Cc1ccccc1`
> 100 µM

// fetch NCI-H226 lung TGI for CC1(C(=O)Nc2ccc3cc4ccccc4cc3c2)CC2(C)CC(C)(C1)C(O)NC2=O (stereo unspecified)
> 100 µM

Missing value: TGI, NCI-H226 lung, entry `CC(C)c1cc2c(c(O)c1O)[C@@]1(C)CCCC(C)(C)C1=C(O)C2` . Fill in?
> 50 µM

Record lookup: for NCI-H226 lung, what TGI belongs to COc1ccc(C2(O)C(S(=O)(=O)c3ccc(C)cc3)=Cc3ccc(OC)cc32)cc1 (stereo unspecified) ?
> 100 µM

State its TGI on NCI-H226 lung: `CC(=O)c1c2c(cc3c1CC1(Cc4cc5c(cc4C1)CCCC5)C3)CCCC2`
> 100 µM

* * *

system: CAKI-1 renal; test: NCI tumour cell line growth inhibition, 48 h
Quantity kind: TGI

GET /values?readout=TGI&item= `COc1ccc2cc(C(=O)CCC(=O)O)ccc2c1`
> 100 µM

For `Cc1ccc(S(=O)(=O)Nn2c(S)c(C#N)c(-c3ccc(N(C)C)cc3)c(C#N)c2=O)cc1` , what is its reported TGI?
> 100 µM

// TGI lookup, key: `CNS(=O)(=O)NNS(=O)(=O)c1cccc([N+](=O)[O-])c1`
> 100 µM

Could you tell me which TGI is on file for `Cc1ccc(NC(=O)/C=C/c2ccccc2)c(C)c1` ?
> 100 µM

Name the recorded TGI for `CS(=O)(=O)CCN(CC#N)Cc1ccc(-c2ccc3ncnc(Nc4ccc(OCc5cccc(F)c5)c(Cl)c4)c3c2)o1` .
> 25 µM

Record request: TGI value, item `C/C(=C1\SC(=NCc2cccs2)NC1=O)c1ccc2ncccc2c1`
> 25 µM

Can you share its TGI? I mean this molecule: Cc1cc(S(=O)(=O)NC2=NCC(C)NN2)c(S)cc1Cl (centres undefined)
> 100 µM

Which TGI reading was recorded for the molecule `Nc1cccc(CCN2CCN(CCCc3ccccc3)CC2)c1` ?
> 100 µM

Can you share its TGI? I mean this molecule: NC(=O)C(N)CC12CC3CC(CC(C3)C1)C2 (centres undefined)
> 100 µM

What does the record list as TGI for `CCCc1cn2c(/C=N/N=C(N)N)c(-c3c(OC)ccc(OC)c3[N+](=O)[O-])nc2s1` ?
30.6 µM

Find the recorded TGI belonging to COC(=O)[C@@]12C(=O)CCC(=O)C1C1C(=CC2C)O[C@@H]2OC3(CCCCC3)O[C@H]12 (some centres undefined) and report it.
> 100 µM

Give its TGI value. Item: `O=C1C(N2CCOCC2)=C(Cl)C(=O)c2ncccc21`
> 10 µM

// query TGI value for entry `CC(=O)CC(=O)Nc1ccccc1[N+](=O)[O-]`
> 100 µM

TGI for `O=C(Cc1nc(-c2ccccc2)cc(=O)n1-c1ccccc1Cl)c1ccncc1` ?
> 100 µM

Data request, read-out TGI, for `O=C1OC(c2ccccc2)=N/C1=C\c1ccc(Cl)cc1`
> 100 µM

Find the recorded TGI belonging to `COc1ccc2oc(=N)c(C(N)=O)cc2c1` and report it.
> 100 µM

Return reported TGI; argument: `O=S(=O)(O)c1cc(N=Nc2cccc3ccccc23)c(O)c2ncccc12`
> 100 µM

Which TGI value belongs to COc1ccc(C(CC(C)=O)c2c(O)c3ccccc3oc2=O)cc1OC (centres undefined) ?
> 100 µM

Any idea what TGI was measured for `Nc1ccc(Cc2ccc(N=Cc3ccc(OCc4cccc(COc5ccc(C=Nc6ccc(Cc7ccc(N)cc7)cc6)cc5)n4)cc3)cc2)cc1` ?
> 100 µM

// query TGI value for entry CC(=O)N1C(Nc2ccccc2)CCN1c1ccccc1 (centres undefined)
> 10 µM

Any idea what its TGI is? The molecule is `O=C(N=Nc1c(O)[nH]c2ccccc12)C(O)(c1ccccc1)c1ccccc1`
> 100 µM

// returns reported TGI for input `COc1cccc(/C=C(\NC(C)=O)c2nc3ccc(Cl)cc3[nH]2)c1`
> 100 µM

Look up TGI: `Oc1c(I)cc(I)cc1CNCCN(Cc1ccccn1)Cc1ccccn1`
2.68 µM

May I ask what TGI has been recorded for `O=C(NCCCN1CCC(N2CCCCC2)CC1)C1=Cc2cc(Br)ccc2OC1` ?
6.09 µM

Requested field: TGI. Item: `CC(C)(C)C1=NC(=P(c2ccccc2)(c2ccccc2)c2ccccc2)C(=O)O1`
> 100 µM

Would you kindly share the measured TGI for CC(C)(C)OC(=O)NC(Cc1ccc(OCc2ccccc2)cn1)C(=O)N1CCCC1 (centres undefined) ?
> 100 µM

Given CCCCCCCCCC(CCCC(O)CC(=O)O)OC1OC(COC2OC(C)C(O)C(O)C2O)C(O)C(O)C1OC1OC(CO)C(O)C(O)C1OC1OC(C)C(OC(=O)CC(C)C)C(O)C1O (centres undefined) , state its recorded TGI.
> 60 µM

Dear colleague, I am looking for the recorded TGI of the following molecule: `CN=c1ss/c(=N\C(=S)N(C)C)n1-c1ccccc1`
> 100 µM

What value of TGI has been recorded for this entry: CCOP(=O)(OCC)C1CC(C)OC1=O (centres undefined)
> 100 µM
